All figures here come from ChEMBL document CHEMBL1124562.

Consider the following molecules and their measured pKi readings.
- experiment: Inhibition of DAla-DAla Ligase by the compound
- Design: species or system Enterococcus faecalis
To interpret pKi, take it as minus log10 of a concentration measured in moles per litre.

// solved cases for pKi follow
>>> quantitativeresult("C[C@@H](N)C(=O)NP(=O)(O)O")
4.30
>>> quantitativeresult("C[C@@H](N)C(=O)CP(=O)(O)O")
3.29

# input for lookup
Prompt: Fill in the blank: the reported pKi of N[C@@H]1CONC1=O is ____.
Response: 3.60

====

Recorded inhibition for the following molecules
- System: Enterococcus faecalis
- experiment: Percent inhibition of D-Alanine-D-Alanine Ligase at 10e-3 M of the compound
Write the number in % without appending the unit.

Use these answered entries as a reference point.
>>> quantitativeresult("CC(C(=O)[C@@H](C)N)P(=O)(O)O (stereo partly specified)")
18
>>> quantitativeresult("CC[C@@H](N)C(=O)CP(=O)(O)O")
26
>>> quantitativeresult("C[C@H](N)C(=O)CP(=O)(O)O")
14
>>> quantitativeresult("C[C@@H](N)C(O)CP(=O)(O)O (stereo partly specified)")
25
>>> quantitativeresult("C[C@@H](N)C(=O)CCP(=O)(O)O")
10

Prompt: // inhibition lookup, key: C[C@@H](N)C(O)C(O)P(=O)(O)O (stereo partly specified)
Response: 32
